Target: T1, Human PD-1 (ACROBiosystems, Inc., Catalog No. PD1-H5221) (human, UniProt Q15116 25-167)
T1 construct: Bought recombinant protein; also called huPD1-His; PD-1-his; not shown: His tag of the bought protein (huPD1-His)
T1 sequence (Q15116 25-167 limits assumed): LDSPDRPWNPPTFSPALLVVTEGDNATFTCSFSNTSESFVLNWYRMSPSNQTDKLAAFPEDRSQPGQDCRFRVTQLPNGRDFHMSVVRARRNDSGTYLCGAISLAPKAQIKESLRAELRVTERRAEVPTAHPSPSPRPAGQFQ
Assay: SPR (Biacore), scFv captured on anti-FLAG, PD-1 as analyte
Protocol: Monoclonal anti-FLAG M2 IgG (Sigma-Aldrich #F9291) was immobilized onto a CMS chip (GE Life Sciences) using amine coupling chemistry (from Amine Coupling Kit, GE Life Sciences). […] The data was fit with the Biacore T200 Evaluation software, using a 1:1 Langmuir binding model. KD (affinity, nM) was determined as a ratio of the kinetic rate constants calculated from the fits of the association and dissociation phases.
pKd: −log10 of the molar value.
quantity: pKd

1) h4B10-1 (VH3-15-Vκ3-11) scFv (scFv, Whole scFv chain with FlagHis tag) scFv: MEVQLVESGGGLVKPGGSLRLSCAASGFTFSTYGMSWVRQAPGKGLEWVATISGGGSNTYYSDSVKGRFTISRDDSKNTLYLQMNSLKTEDTAVYYCARQRDSAWFASWGQGTLVTVSSGGGGSGGGGSGGGGSEIVLTQSPATLSLSPGERATLSCRASENVDDYGVSFMNWYQQKPGQAPRLLIYPASNQGSGIPARFSGSGSGTDFTLTISSLEPEDFAVYYCQQSKEVPWTFGQGTKVEIKGSGDYKDDDDKGSGHHHHHH
8.61
2) h1E9-4 (VH3-7-Vκ1-9) scFv (scFv, Whole scFv chain with FlagHis tag) scFv: MEVQLVESGGGLVQPGGSLRLSCAASGFTFSTFGMSWVRQAPGKGLEWVATISGGGSDTYYPDSVQGRFTISRDNAKNSLYLQMNSLRAEDTAVYYCARQGYDVYSWFAYWGQGTLVTVSSGGGGSGGGGSGGGGSDIQLTQSPSFLSASVGDRVTITCRASESVDNSGISFMSWYQQKPGKAPKLLIYTASNQGSGVPSRFSGSGSGTEFTLTISSLQPEDFATYYCQQSKEVPWTFGQGTKVEIKGSGDYKDDDDKGSGHHHHHH
8.44
3) h1E9-2 (VH3-21-Vκ3-11) scFv (scFv, Whole scFv chain with FlagHis tag) scFv: MEVQLVESGGGLVKPGGSLRLSCAASGFTFSTFGMSWVRQAPGKGLEWVSTISGGGSDTYYPDSVQGRFTISRDNAKNSLYLQMNSLRAEDTAVYYCARQGYDVYSWFAYWGQGTLVTVSSGGGGSGGGGSGGGGSEIVLTQSPATLSLSPGERATLSCRASESVDNSGISFMSWYQQKPGQAPRLLIYTASNQGSGIPARFSGSGSGTDFTLTISSLEPEDFAVYYCQQSKEVPWTFGQGTKVEIKGSGDYKDDDDKGSGHHHHHH
7.41
4) m4B10 scFv (scFv, Mouse single-chain antibody, whole chain with FlagHis tag) scFv: MEVKLVESGGGLVKPGGSLKLSCAASGFTFSTYGMSWVRQTPEKRLQWVATISGGGSNTYYSDSVKGRFTISRDNAKNNLYLQMSSLRSEDTALYYCARQRDSAWFASWGQGTLVTVSAGGGGSGGGGSGGGGSDIVLTQSPASLAVSLGQRATISCRASENVDDYGVSFMNWFQQKPGQPPKLLIYPASNQGSGVPARFSGSGSGTDFSLNIHPMEEDDTAMYFCQQSKEVPWTFGGGTKLEIKGSGDYKDDDDKGSGHHHHHH
8.29
5) h4B10-2 (VH3-15-Vκ3-20) scFv (scFv, Whole scFv chain with FlagHis tag) scFv: MEVQLVESGGGLVKPGGSLRLSCAASGFTFSTYGMSWVRQAPGKGLEWVATISGGGSNTYYSDSVKGRFTISRDDSKNTLYLQMNSLKTEDTAVYYCARQRDSAWFASWGQGTLVTVSSGGGGSGGGGSGGGGSEIVLTQSPGTLSLSPGERATLSCRASENVDDYGVSFMNWYQQKPGQAPRLLIYPASNQGSGIPDRFSGSGSGTDFTLTISRLEPEDFAVYYCQQSKEVPWTFGQGTKVEIKGSGDYKDDDDKGSGHHHHHH
8.55
